B1: glmS ribozyme (parent)
chain: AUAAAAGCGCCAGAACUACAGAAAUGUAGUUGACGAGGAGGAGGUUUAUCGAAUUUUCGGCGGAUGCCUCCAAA

Variants of: B1
assay_details: self-cleavage kobs at 2500 uM GlcN6P; higher = faster cleavage; RNA array
condition_notes: with glucosamine-6-phosphate
This sample holds only a part of the variants without activity.
Would you kindly list self-cleavage kobs at 2500 uM GlcN6P for each of these variants?

## Task Output self-cleavage kobs at 2500 uM GlcN6P of C8U U54G A64U U65G
## Result < 1e-05 s⁻¹

## Task Output self-cleavage kobs at 2500 uM GlcN6P of A15U U47A
## Result 0.00263 s⁻¹

## Task Output self-cleavage kobs at 2500 uM GlcN6P of G35C A36C G40A G62C A64G C70U
## Result < 1e-05 s⁻¹

## Task Output self-cleavage kobs at 2500 uM GlcN6P of C34G C50G
## Result 9.6e-05 s⁻¹

## Task Output self-cleavage kobs at 2500 uM GlcN6P of C34A A36G
## Result < 1e-05 s⁻¹

## Task Output self-cleavage kobs at 2500 uM GlcN6P of A14C U55C
## Result 0.00171 s⁻¹

## Task Output self-cleavage kobs at 2500 uM GlcN6P of G43A U49C G66A C70G
## Result < 1e-05 s⁻¹

## Task Output self-cleavage kobs at 2500 uM GlcN6P of U30G G41U G44U
## Result < 1e-05 s⁻¹

## Task Output self-cleavage kobs at 2500 uM GlcN6P of U56A C70G
## Result 0.000153 s⁻¹

## Task Output self-cleavage kobs at 2500 uM GlcN6P of A14U G66A C70U
## Result 0.00125 s⁻¹

## Task Output self-cleavage kobs at 2500 uM GlcN6P of C11G G66U
## Result < 1e-05 s⁻¹

## Task Output self-cleavage kobs at 2500 uM GlcN6P of A15U G35U G40A
## Result < 1e-05 s⁻¹

## Task Output self-cleavage kobs at 2500 uM GlcN6P of A6G G35A C67U U69A
## Result < 1e-05 s⁻¹

## Task Output self-cleavage kobs at 2500 uM GlcN6P of A6U A12C C34U A48G C61G A64U
## Result < 1e-05 s⁻¹

## Task Output self-cleavage kobs at 2500 uM GlcN6P of U56G A64C
## Result 3.92e-05 s⁻¹

## Task Output self-cleavage kobs at 2500 uM GlcN6P of G32U A64G C71U
## Result 0.000459 s⁻¹

## Task Output self-cleavage kobs at 2500 uM GlcN6P of G13C G29U G32A U54G U65C C68G U69G
## Result 9.24e-05 s⁻¹

## Task Output self-cleavage kobs at 2500 uM GlcN6P of C11U G29A
## Result 0.000194 s⁻¹

## Task Output self-cleavage kobs at 2500 uM GlcN6P of G13C G37A C50U G59C
## Result < 1e-05 s⁻¹

## Task Output self-cleavage kobs at 2500 uM GlcN6P of U30G U47G
## Result 0.00098 s⁻¹

## Task Output self-cleavage kobs at 2500 uM GlcN6P of U31C C58U
## Result 2.64e-05 s⁻¹

## Task Output self-cleavage kobs at 2500 uM GlcN6P of G7U U55G U57C
## Result < 1e-05 s⁻¹

## Task Output self-cleavage kobs at 2500 uM GlcN6P of G37A G66C
## Result 0.000357 s⁻¹

## Task Output self-cleavage kobs at 2500 uM GlcN6P of G7C A15U G43A A48G C67A
## Result < 1e-05 s⁻¹

## Task Output self-cleavage kobs at 2500 uM GlcN6P of G9C A39C
## Result < 1e-05 s⁻¹

## Task Output self-cleavage kobs at 2500 uM GlcN6P of A36U A39C
## Result < 1e-05 s⁻¹

## Task Output self-cleavage kobs at 2500 uM GlcN6P of U49A C70U
## Result 3.89e-05 s⁻¹

## Task Output self-cleavage kobs at 2500 uM GlcN6P of G7U U45G C71A
## Result < 1e-05 s⁻¹

## Task Output self-cleavage kobs at 2500 uM GlcN6P of A6C A12U G29A C68G
## Result < 1e-05 s⁻¹

## Task Output self-cleavage kobs at 2500 uM GlcN6P of A36G G60C
## Result < 1e-05 s⁻¹
